Test system: Human papillomavirus type 1a protein E7 (residues 44-93)
Assay: HPV1a E7 fragment binders on microarrays, primary screen, biochemical, small-molecule microarray, residues 44-93, 635 nm fluorescence (AID 1108);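 further: E7 fragment applied at 1 µg/mL in TBST for 1 h at 4 C; score combines spot fluorescence with its signal to noise ratio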
Details: small-molecule microarray binding, fluorescence 635 nm; higher = more signal
measurementType: composite z-score

[in] // fetch composite z-score given entry CC(C)(C)N1C(=O)[C@H]2[C@H]3[C@H](O)[C@H](O)CC(=O)[C@@H]3CC[C@H]2C1=O
[out] 0.3

[in] // fetch composite z-score given entry CCOC(=O)NN=C1C[C@@H](O)[C@@H](O)[C@@H]2[C@@H]3C(=O)N(c4cccc(Oc5ccccc5)c4)C(=O)[C@@H]3CC[C@@H]12
[out] -0.269

[in] // fetch composite z-score given entry CO[C@H]1COC(=O)CCC[C@@H](C)[C@H](OC)COC(=O)[C@@H]2CCCN2C(=O)CC=C[C@@H]1C
[out] -1.68

[in] // fetch composite z-score given entry CCOC(=O)[C@H](Cc1ccccc1)NC(=O)CCC1CC(OC(=O)NCc2cccc3ccccc23)CC2(CCCC(COC(=O)NCC(c3ccccc3)c3ccccc3)O2)O1 (some centres undefined)
[out] 0.313
